Below, each entry is listed alongside its reported Seiz..
# Test system: seizure-like convulsions in mice
# assayName: mouse seizure-like convulsions
# Assay type: in vivo
# assayContext: 10 mg/kg IV
Report only the number, with the unit % 10 mg/kg IV understood.

Example cases with answers are listed next.
1. CCOC(=O)C1CCN(C(=O)c2cccc([C@H](c3cccc(O)c3)N3C[C@@H](C)N(CC4CC4)C[C@@H]3C)c2)CC1 [Example 126]: 10
2. CCOC(=O)CN1CCCN(C(=O)c2cccc(C(c3cccc(O)c3)N3C[C@@H](C)N(Cc4cccc(F)c4)C[C@@H]3C)c2)CC1 (stereo partly drawn): 20
3. C=CCN1C[C@H](C)N([C@@H](c2cccc(O)c2)c2cccc(C(=O)N3CCC(C(=O)O)CC3)c2)C[C@H]1C [Example 120]: 10
4. CCOC(=O)CCCCCCN1CCN(C(=O)c2cccc([C@H](c3cccc(O)c3)N3C[C@@H](C)N(Cc4ccccc4)C[C@@H]3C)c2)CC1 [Example 110]: 70

Could you now look at the following molecule, please?
Req: Give the measured Seiz. of C=CCN1C[C@H](C)N(C(c2ccc(C(=O)N3CCCN(CCCC(=O)OCC)CC3)cc2)c2cccc(O)c2)C[C@H]1C (stereo partly drawn) .
Resp: 0
